protocol.description: Ratio of drug level in brain to plasma in rat at 1 mg/kg, iv after 0.25 hr
Assay type: ADME, organism-based
Parameters: dose 1 mg/kg, route intravenous
assay.conditions: brain and plasma, read-out: BPR
experimental.readout: Kp at 0.25 h
In your answer, state the number alone without any accompanying words.

Which Kp at 0.25 h value belongs to Nc1n[nH]c2nc(N3CCCCC3)c3c(c12)CCN(Cc1ccccc1)C3 ? 4.4

---

test.target: Bombesin receptor subtype-3 (Homo sapiens) (UniProt P32247)
Sequence (P32247 whole entry): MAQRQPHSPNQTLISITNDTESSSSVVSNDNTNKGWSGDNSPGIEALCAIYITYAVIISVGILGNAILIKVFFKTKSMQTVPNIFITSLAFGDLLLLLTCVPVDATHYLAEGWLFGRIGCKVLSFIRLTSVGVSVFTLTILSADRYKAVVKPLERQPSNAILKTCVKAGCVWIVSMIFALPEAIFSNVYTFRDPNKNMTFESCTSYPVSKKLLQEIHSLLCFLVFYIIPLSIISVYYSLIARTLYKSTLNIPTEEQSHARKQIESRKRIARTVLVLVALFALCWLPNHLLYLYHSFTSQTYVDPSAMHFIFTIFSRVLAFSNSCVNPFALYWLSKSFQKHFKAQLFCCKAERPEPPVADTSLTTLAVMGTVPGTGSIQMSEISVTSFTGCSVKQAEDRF
protocol.description: Agonist activity at human BRS3 expressed in HEK293AEQ cells after 10 mins by aequorin bioluminescence assay relative to dY-peptide
Format: functional, cell-based
# binarize Activity: threshold 10% inclusive, high side 1 (yes), low side 0 (no)

Hello, I need to know if CC(=O)n1nc(N)c2c3c(c(N4CCCCC4)nc21)CN(Cc1ccccc1)CC3 has measured Activity not below 10%. Thanks! 1 (yes)

Thanks! And Nc1n[nH]c2nc(N3CCCCC3)c3c(c12)CCN(Cc1cccc(C(F)(F)F)c1)C3 ? 0 (no)

Thanks! And Cn1nc(N)c2c3c(c(N4CCCCC4)nc21)CN(Cc1ccccc1)CC3 ? 0 (no)

Thanks! And Nc1n[nH]c2nc(N3CCCCCC3)c3c(c12)CCN(Cc1ccccc1)C3 ? 0 (no)
